// AUC0−inf lookup, one value per entry
Assay: TK assay, intravenous mixture dosing: serum concentrations and noncompartmental analysis (sparse data)
Conditions: serum, IV mixture dosing, NCA, n=12

Compound: O=C(O)[C@H]1O[C@@H](Oc2ccc(S(=O)(=O)c3ccc(O)cc3)cc2)[C@H](O)[C@@H](O)[C@@H]1O [BPSG, bisphenol S glucuronide]
AUC0−inf (µM·h): 5.18

Compound: O=S(=O)(O)C(F)(F)C(F)(F)C(F)(F)C(F)(F)C(F)(F)C(F)(F)C(F)(F)C(F)(F)F [nPFOS]
AUC0−inf (µM·h): 330

Compound: CCCCC(CC)COC(=O)c1ccccc1C(=O)O (stereo not shown) [MEHP, mono(2-ethylhexyl)phthalate]
AUC0−inf (µM·h): 9.73

Compound: O=S(=O)(c1ccc(O)cc1)c1ccc(O)cc1 [BPS, bisphenol S]
AUC0−inf (µM·h): 2.41

###

Test: in vivo
Conditions: female, New Zealand white, rabbit, in vivo, Clearance

Record Smiles: ClC(Cl)=C(c1ccc(Cl)cc1)c1ccc(Cl)cc1
clearance [mL/min/kg]: 2.17

###

Assay: in vivo
Details: female, New Zealand white, rabbit, in vivo, iv, Serum concentration
Endpoint Label: concentration at 672 h (nM)

Record Smiles: ClC(Cl)=C(c1ccc(Cl)cc1)c1ccc(Cl)cc1
Observed Result: 6.8

###

Assay: TK assay, oral mixture dosing: serum concentrations and noncompartmental analysis (sparse data)
Conditions: female, New Zealand white, rabbit, in vivo, po, Serum concentration, oral, rabbit 17, 0.53 h; MEHP after oral DEHP
Endpoint Label: concentration at 0.53 h (nM)

Record Smiles: O=C(O)C(F)(F)C(F)(F)C(F)(F)C(F)(F)C(F)(F)C(F)(F)C(F)(F)F
Observed Result: 2350

###

Assay: TK assay, oral mixture dosing: serum concentrations and noncompartmental analysis (sparse data)
Conditions: female, New Zealand white, rabbit, in vivo, po, Serum concentration, oral, rabbit 18, 71.96 h; MEHP after oral DEHP
// concentration at 71.96 h lookup, one value per entry

Compound: O=C(O)C(F)(F)C(F)(F)C(F)(F)C(F)(F)C(F)(F)C(F)(F)C(F)(F)F [PFOA, perfluorooctanoic acid]
concentration at 71.96 h (nM): 78

Compound: Brc1ccc(Oc2ccc(Br)cc2Br)c(Br)c1 [BDE-47, 2,2′,4,4′-tetrabromodiphenyl ether]
concentration at 71.96 h (nM): 300

Compound: Cl[C@H]1[C@H](Cl)[C@@H](Cl)[C@H](Cl)[C@@H](Cl)[C@@H]1Cl [β-HCH, β-hexachlorocyclohexane]
concentration at 71.96 h (nM): 180

###

Assay: TK assay, oral mixture dosing: serum concentrations and noncompartmental analysis (sparse data)
Details: female, New Zealand white (INRA 1777 line), rabbit, in vivo, po, Serum concentration, oral, rabbit 15, 4.05 h; MEHP after oral DEHP

Compound: O=C(O)C(F)(F)C(F)(F)C(F)(F)C(F)(F)C(F)(F)C(F)(F)C(F)(F)F [PFOA, perfluorooctanoic acid]
concentration at 4.05 h: 9.07 µM

###

Assay: in vivo
Details: female, New Zealand white, rabbit, in vivo

Record Smiles: Clc1c(Cl)c(Cl)c(Cl)c(Cl)c1Cl
clearance: 0.85 mL/min/kg

###

Experiment: TK assay, intravenous mixture dosing: serum concentrations and noncompartmental analysis (sparse data)
Conditions: female, New Zealand white, rabbit, in vivo, iv, Serum concentration, rabbit 9, 11.97 h
Method: The experiment was carried out on thirty 10-wk old female New Zealand white rabbits (INRA 1777 line) weighing 2.37±0.14kg . […] Residual concentrations of the compounds, and their possible evolution over time, were determined by sampling six entirely untreated rabbits during the TK study on the day of drug administrations, then 14 d and 28 d later. The volume administered was adjusted to the animal’s body weight (BW) recorded the day before. […]
Endpoint Label: concentration at 11.97 h (nM)

Molecule: O=C(O)C(F)(F)C(F)(F)C(F)(F)C(F)(F)C(F)(F)C(F)(F)C(F)(F)F [PFOA, perfluorooctanoic acid]
Endpoint Label: concentration at 11.97 h
Observed Result: 590
